# System: Peripheral blood neutrophils
# experimental details: Neutrophil apoptosis, Giemsa stain and light microscopy
# Assay type: cell-based
# stated conditions: Homo sapiens, 20 hours culture, read-out: IC50 of inhibition of neutrophil apoptosis
measured endpoint: pIC50
Keep it numeric: pIC50 is minus log10 of the concentration in mol/L.

Inquiry: # get_value(readout='pIC50', item= COc1cccc(CNc2nc(Cl)nc3c2ncn3C2OC(CO)C(O)C2O)c1O (stereo not shown) [Compound 10] )
Reply text: 6.00

====

List of GI50 values.
# Tested on: human myeloid leukemia K-562
# experimental details: In vitro cytotoxicity, Calcein AM assay, K-562
# Format: cell-based
# stated conditions: 72 hours
Report the figure in µM without appending any unit label.

Known results for compounds:
>>> result_value("COc1c(O)cccc1CNc1ncnc2c1ncn2[C@@H]1O[C@H](CO)[C@@H](O)[C@H]1O [2-methoxy-3-hydroxybenzylamino, reference compound]")
16.5
>>> result_value("Cc1ccc(O)c(CNc2ncnc3c2ncn3C2OC(CO)C(O)C2O)c1 (stereo not drawn) [2-hydroxy-5-methylbenzylamino, reference compound]")
18

Read the next record carefully.
Inquiry: Need GI50 of OCC1OC(n2cnc3c(NCc4cc(Cl)ccc4O)ncnc32)C(O)C1O (stereo not drawn) [2-hydroxy-5-chlorobenzylamino, reference compound] , thanks.
Reply text: 36

Each recorded value in this set is attributed to patent US20140066394A1.
